In this section, each of the compounds is paired with its reported tissue uptake at 4 h.
Test: in vivo
Settings: female, CD1/nude, mouse, 5 MBq (0.5 nmol), total radioactivity, Spleen
Give the quantity in %ID/g, number only.

# compound, experimental-readout, recorded-number
measured = [
    ("CC(C)C[C@H](NC(=O)[C@H](Cc1ccc(O)cc1)NC(=O)[C@@H](CCCNC(=N)N)NC(=O)[C@@H](CO)NC(=O)[C@H](Cc1ccccc1)NC(=O)[C@H](CC1CCCCC1)NC(=O)[C@H](CC(=O)O)NC(=O)[C@H](CCCCNC(=O)CCOCCOCCOCCOCCNC(=O)CCCc1ccc(I)cc1)NC(=O)CN1CCN(CC(=O)O)CCN(CC(=O)O)CCN(CC(=O)O)CC1)C(=O)N[C@@H](Cc1c[nH]c2ccccc12)C(=O)N[C@@H](CO)C(N)=O [[^177Lu]Lu-uPAR-02, metal not drawn]", "tissue uptake at 4 h", 2.2),
]

Measured tissue uptake at 4 h, CC(C)C[C@H](NC(=O)[C@H](Cc1ccc(O)cc1)NC(=O)[C@@H](CCCNC(=N)N)NC(=O)[C@@H](CO)NC(=O)[C@H](Cc1ccccc1)NC(=O)[C@H](CC1CCCCC1)NC(=O)[C@H](CC(=O)O)NC(=O)[C@H](CCCCNC(=O)CCOCCOCCOCCOCCNC(=O)c1ccc(CNC(=O)CCCc2ccc(I)cc2)cc1)NC(=O)CN1CCN(CC(=O)O)CCN(CC(=O)O)CCN(CC(=O)O)CC1)C(=O)N[C@@H](Cc1c[nH]c2ccccc12)C(=O)N[C@@H](CO)C(N)=O [[^177Lu]Lu-uPAR-03, metal not drawn] : 2.2

###

Assay: in vitro
Settings: mouse, plasma
experimental-readout: remaining at 1 h, 10 MBq/200 µL (%)
Give the quantity in %, number only.

# compound, quantity-unit, remaining at 1 h, 10 MBq/200 µL
records = [
    ("CC(C)C[C@H](NC(=O)[C@H](Cc1ccc(O)cc1)NC(=O)[C@@H](CCCNC(=N)N)NC(=O)[C@@H](CO)NC(=O)[C@H](Cc1ccccc1)NC(=O)[C@H](CC1CCCCC1)NC(=O)[C@H](CC(=O)O)NC(=O)[C@H](CCCCNC(=O)CCOCCOCCOCCOCCNC(=O)CCCc1ccc(I)cc1)NC(=O)CN1CCN(CC(=O)O)CCN(CC(=O)O)CCN(CC(=O)O)CC1)C(=O)N[C@@H](Cc1c[nH]c2ccccc12)C(=O)N[C@@H](CO)C(N)=O [[^177Lu]Lu-uPAR-02, metal not drawn]", "%", 100),
]

Measured remaining at 1 h, 10 MBq/200 µL, CC(C)C[C@H](NC(=O)[C@H](Cc1ccc(O)cc1)NC(=O)[C@@H](CCCNC(=N)N)NC(=O)[C@@H](CO)NC(=O)[C@H](Cc1ccccc1)NC(=O)[C@H](CC1CCCCC1)NC(=O)[C@H](CC(=O)O)NC(=O)[C@H](CCCCNC(=O)CCOCCOCCOCCOCCNC(=O)c1ccc(CNC(=O)CCCc2ccc(I)cc2)cc1)NC(=O)CN1CCN(CC(=O)O)CCN(CC(=O)O)CCN(CC(=O)O)CC1)C(=O)N[C@@H](Cc1c[nH]c2ccccc12)C(=O)N[C@@H](CO)C(N)=O [[^177Lu]Lu-uPAR-03, metal not drawn] : 100

Value source: paper PMC12135066
